Provide the reported bile acid concentration at which stable injectable preparations can be made of each item.
# METHOD SUMMARY: Formulation stability of PPC injectable preparations: property, transparency, particle size, pH
# CONDITION LABEL: based on PPC 5.0%

Summary for this molecule, "C[C@H](CCC(=O)O)[C@H]1CC[C@H]2[C@@H]3C[C@H](O)[C@@H]4C[C@H](O)CC[C@]4(C)[C@H]3CC[C@]12C" : bile acid concentration at which stable injectable preparations can be made is ≥ 2.3%

The molecule listed as "C[C@H](CCC(=O)O)[C@H]1CC[C@H]2[C@@H]3CC[C@@H]4C[C@H](O)CC[C@]4(C)[C@H]3C[C@H](O)[C@]12C" shows bile acid concentration at which stable injectable preparations can be made equal to ≥ 2.1%

// sample "C[C@H](CCC(=O)O)[C@H]1CC[C@H]2[C@@H]3[C@H](O)C[C@@H]4C[C@H](O)CC[C@]4(C)[C@H]3C[C@H](O)[C@]12C" , its bile acid concentration at which stable injectable preparations can be made was ≥ 2.2%

get_value(item= "C[C@H](CCC(=O)NCCS(=O)(=O)O)[C@H]1CC[C@H]2[C@@H]3[C@@H](O)C[C@@H]4C[C@H](O)CC[C@]4(C)[C@H]3CC[C@]12C" , readout=bile acid concentration at which stable injectable preparations can be made) returns ≥ 4.0%

---

# Tested on: sole of the rat paws
# METHOD SUMMARY: Measurement of skin lesion (erythema) on rat paw;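 note: grades − to ++++ mean no to extremely severe erythema versus before injection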
# Type: in vivo, Sprague Dawley rats
# CONDITION LABEL: bile acid single composition 1.0% (w/v)
# Procedure: To evaluate the degree of edema, each test compositions described above were injected into the paw of the rats. Specifically, male Sprague Dawley rats (6 weeks old) were purchased and used after one week of adaptation. The rats (body weight: 170˜200 g) were randomly selected and the thickness of the rat paw were measured with a caliper before the administration of the test compositions. […] The grades of skin lesion were evaluated as 0 to 4 grades.
VALUE KIND: grade of skin lesion (erythema), Immediately after administration

C[C@H](CCC(=O)O)[C@H]1CC[C@H]2[C@@H]3C[C@H](O)[C@@H]4C[C@H](O)CC[C@]4(C)[C@H]3CC[C@]12C: +
C[C@H](CCC(=O)NCCS(=O)(=O)O)[C@H]1CC[C@H]2C3CC[C@@H]4C[C@H](O)CC[C@]4(C)[C@H]3C[C@H](O)[C@]12C (some centres unmarked): +
C[C@H](CCC(=O)NCC(=O)O)[C@H]1CC[C@H]2[C@@H]3[C@H](O)C[C@@H]4C[C@H](O)CC[C@]4(C)[C@H]3C[C@H](O)[C@]12C: −
C[C@H](CCC(=O)O)[C@H]1CC[C@H]2[C@@H]3[C@H](O)C[C@@H]4C[C@H](O)CC[C@]4(C)[C@H]3CC[C@]12C: +
C[C@H](CCC(=O)O)[C@H]1CC[C@H]2[C@@H]3[C@@H](O)C[C@@H]4C[C@H](O)CC[C@]4(C)[C@H]3CC[C@]12C: +

Entry "C[C@H](CCC(=O)O)[C@H]1CC[C@H]2[C@@H]3CC[C@@H]4C[C@H](O)CC[C@]4(C)[C@H]3C[C@H](O)[C@]12C" : grade of skin lesion (erythema), Immediately after administration on sole of the rat paws = ++

Result for C[C@H](CCC(=O)NCC(=O)O)[C@H]1CC[C@H]2[C@@H]3CCC4C[C@H](O)CC[C@]4(C)[C@H]3C[C@H](O)[C@]12C (some centres unmarked) , tested on sole of the rat paws, grade of skin lesion (erythema), Immediately after administration: ++

// returns grade of skin lesion (erythema), Immediately after administration for "C[C@H](CCC(=O)NCCS(=O)(=O)O)[C@H]1CC[C@H]2[C@@H]3[C@@H](O)C[C@@H]4C[C@H](O)CC[C@]4(C)[C@H]3CC[C@]12C" with sole of the rat paws; value = −
